test system: HCT-116; assay: Growth inhibition of human HCT-116 cells assessed as reduction in cell viability at 100 ug/ml by SRB colorimetric assay relative to control; format: functional; settings: read-out: GI
measurement name: inhibition of growth at 100 µg/mL (%)

[
  {
    "compound": "NC1=Nc2nc3ccccc3n2C(c2ccc(Cl)c(Cl)c2)N1 (stereo unspecified)",
    "target entity": "HCT-116",
    "measurement name": "inhibition of growth at 100 µg/mL",
    "reported measurement": 51.1
  },
  {
    "compound": "COc1cc(C2NC(N)=Nc3nc4ccccc4n32)cc(OC)c1OC (stereo unspecified)",
    "target entity": "HCT-116",
    "measurement name": "inhibition of growth at 100 µg/mL",
    "reported measurement": 63.6
  },
  {
    "compound": "CN(C)c1ccc(C2NC(N)=Nc3nc4ccccc4n32)cc1 (stereo unspecified)",
    "target entity": "HCT-116",
    "measurement name": "inhibition of growth at 100 µg/mL",
    "reported measurement": 64.1
  },
  {
    "compound": "NC1=Nc2nc3ccccc3n2C(c2c[nH]c3ccccc23)N1 (stereo unspecified)",
    "target entity": "HCT-116",
    "measurement name": "inhibition of growth at 100 µg/mL",
    "reported measurement": 64.3
  },
  {
    "compound": "Cc1ccc(C2NC(N)=Nc3nc4ccccc4n32)o1 (stereo unspecified)",
    "target entity": "HCT-116",
    "measurement name": "inhibition of growth at 100 µg/mL",
    "reported measurement": 60.9
  },
  {
    "compound": "NC1=Nc2nc3ccccc3n2C(c2ccc([N+](=O)[O-])cc2)N1 (stereo unspecified)",
    "target entity": "HCT-116",
    "measurement name": "inhibition of growth at 100 µg/mL",
    "reported measurement": 61.3
  }
]
